assayed-target: 2P-ERK2 (Rattus norvegicus, UniProt P63086)
Sequence (P63086 whole entry): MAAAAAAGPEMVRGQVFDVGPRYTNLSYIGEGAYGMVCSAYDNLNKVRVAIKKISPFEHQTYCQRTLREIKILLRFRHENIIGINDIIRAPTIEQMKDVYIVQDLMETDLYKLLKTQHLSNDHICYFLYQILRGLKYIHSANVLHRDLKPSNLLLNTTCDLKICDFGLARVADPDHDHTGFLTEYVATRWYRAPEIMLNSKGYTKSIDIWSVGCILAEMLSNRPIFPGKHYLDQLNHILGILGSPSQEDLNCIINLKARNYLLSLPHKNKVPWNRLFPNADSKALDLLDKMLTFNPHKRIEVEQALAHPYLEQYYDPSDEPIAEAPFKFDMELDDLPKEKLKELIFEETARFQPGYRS
reported-metric: pIC50
Formally, pIC50 is defined as -log10 of the concentration c, with c in mol/L.

Cn1cnc2c(NCc3ccccc3)nc(NCCO)nc21 [Olomoucin] | 4.48

Now let's try a different one.
Return pIC50 (reported value) for this compound: Nc1[nH]nc2nnc(-c3c(-c4ccccc4)nn4ccccc34)cc12 [FR180204]
6.48
